Reported Ki against Aurora kinase A (Homo sapiens, UniProt O14965), gathered from multiple publications, appears below.

Some solved entries appear below for comparison.
CO[C@H]1CCN(c2cc(Nc3ncc(C)s3)nc(Sc3ccc(NC(=O)C4CC4)cc3)n2)C1    ≤ 0.01 µM
CN(C)CCN(C)C(=O)c1ccc(-c2cnc3c(-c4ccccn4)c(N)nn3c2)cc1    < 0.5 µM

Input line: What is its Ki for Aurora kinase A (Homo sapiens, UniProt O14965)? Entry: `CCN(CCO)c1ccc(NN=C2C(=O)NN=C2c2cc(OC)c(OC)c(OC)c2)cc1`
Output line: < 0.1 µM

Input line: Form entry - test system: Aurora kinase A (Homo sapiens, UniProt O14965); read-out: Ki; molecule: `Cc1cnc(Nc2cc(N3CC[C@@H](N4CCCC4)C3)nc(Sc3ccc(NC(=O)C4CC4)cc3)n2)s1`
Output line: ≤ 0.01 µM
